- studySystem: DYRK1A (RnDYRK1A-kd) (Rattus norvegicus)
- protocolSummary: biochemical
- conditionContext: read-out: % of control remaining
quantityKind: remaining activity at 10 µM
Don't forget the unit after the number, please.

Below, 2 compounds whose answers are already recorded.
substanceSmiles	quantityKind	experimentalValue
O=C(Nc1ccc2oc(-c3cccnc3)nc2c1)c1ncoc1-c1ccccc1Cl	remaining activity at 10 µM	80%
O=C(NC[C@@H]1Cc2cc(-c3cncnc3)ccc2O1)c1scc2c1CCCC2	remaining activity at 10 µM	75%

Now consider a different compound.
Under DYRK1A (RnDYRK1A-kd) (Rattus norvegicus): report remaining activity at 10 µM of `Cc1cccc(OCC(=O)Nc2ccc3oc(-c4cccnc4)nc3c2)c1C` . 73%

###

- studySystem: PIM1 (Homo sapiens, UniProt P11309)
- Sequence (P11309 whole entry): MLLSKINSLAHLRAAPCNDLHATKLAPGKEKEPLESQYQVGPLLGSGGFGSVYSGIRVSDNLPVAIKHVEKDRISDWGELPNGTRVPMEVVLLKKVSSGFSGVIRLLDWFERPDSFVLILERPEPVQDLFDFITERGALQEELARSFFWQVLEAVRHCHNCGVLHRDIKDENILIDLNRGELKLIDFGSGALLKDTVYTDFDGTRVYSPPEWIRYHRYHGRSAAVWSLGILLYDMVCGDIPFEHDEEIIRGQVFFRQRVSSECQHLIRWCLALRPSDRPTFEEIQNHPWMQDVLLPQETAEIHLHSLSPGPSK
- protocolSummary: biochemical
- conditionContext: read-out: % of control remaining
quantityKind: remaining activity at 10 µM (%)
Respond numerically; units are % and should not be typed.

compound	remaining activity at 10 µM [%]
O=C(Nc1ccc(Cc2ccncc2)cc1)Nc1cccc2ccccc12 [compound 22, #22]	85
O=C(NC[C@@H]1Cc2cc(-c3cncnc3)ccc2O1)c1scc2c1CCCC2 [compound 47, #47]	89

Please look at this compound and report its remaining activity at 10 µM: O=C(NC[C@H]1CC(=O)N(c2ccc3c(c2)OCO3)C1)Nc1cccc(C(F)(F)F)c1 [compound 75, #75] 95

###

Here the recorded remaining activity at 10 µM is given for each entry.
- studySystem: CDK5/P25 (Homo sapiens)
- Sequence (Q00535 whole entry): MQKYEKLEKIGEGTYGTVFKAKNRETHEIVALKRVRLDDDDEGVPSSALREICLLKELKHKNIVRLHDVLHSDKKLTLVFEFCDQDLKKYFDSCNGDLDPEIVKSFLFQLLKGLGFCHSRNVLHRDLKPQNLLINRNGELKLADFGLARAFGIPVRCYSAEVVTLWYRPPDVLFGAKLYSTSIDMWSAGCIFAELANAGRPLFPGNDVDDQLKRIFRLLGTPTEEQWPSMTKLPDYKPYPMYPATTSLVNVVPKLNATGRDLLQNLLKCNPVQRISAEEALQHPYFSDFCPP
- Sequence (Q15078 whole entry partner): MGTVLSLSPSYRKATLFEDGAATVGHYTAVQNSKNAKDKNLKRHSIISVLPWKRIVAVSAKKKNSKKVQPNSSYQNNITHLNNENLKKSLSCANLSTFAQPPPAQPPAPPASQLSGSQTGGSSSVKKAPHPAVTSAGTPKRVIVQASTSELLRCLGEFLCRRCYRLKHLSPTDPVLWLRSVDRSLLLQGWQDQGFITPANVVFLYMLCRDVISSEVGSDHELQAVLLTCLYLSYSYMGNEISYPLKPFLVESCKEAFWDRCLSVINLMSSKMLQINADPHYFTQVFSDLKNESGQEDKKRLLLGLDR
- protocolSummary: biochemical
- conditionContext: read-out: % of control remaining
Respond numerically; units are % and should not be typed.

Below, 5 compounds whose answers are already recorded.
compound	quantityKind	unitInfo	experimentalValue
O=C(Nc1ccc(Cc2ccncc2)cc1)Nc1cccc2ccccc12 [compound 22, #22]	remaining activity at 10 µM	%	115
O=C(NC[C@@H]1Cc2cc(-c3cncnc3)ccc2O1)c1scc2c1CCCC2 [compound 47, #47]	remaining activity at 10 µM	%	107
Cc1cccc(OCC(=O)Nc2ccc3oc(-c4cccnc4)nc3c2)c1C [compound 45, #45]	remaining activity at 10 µM	%	115
Cc1ccc(NC(=O)Nc2ccc(Cc3ccncc3)cc2)cc1C [compound 82, #82]	remaining activity at 10 µM	%	109
O=C(NC[C@H]1CC(=O)N(c2ccc3c(c2)OCO3)C1)Nc1cccc(C(F)(F)F)c1 [compound 75, #75]	remaining activity at 10 µM	%	101

Please look at this compound and report its remaining activity at 10 µM: O=C(CSc1ccc(-c2cccnc2)nn1)Nc1cccc(C(F)(F)F)c1 [compound 9, #9] 107

Please look at this compound and report its remaining activity at 10 µM: N#Cc1ccc2ncnc(NCCc3ccccc3)c2c1 [Senexin A] 57

Please look at this compound and report its remaining activity at 10 µM: O=C(Nc1ccc2oc(-c3cccnc3)nc2c1)c1ncoc1-c1ccccc1Cl [compound 76, #76] 89

###

- studySystem: DYRK1A (RnDYRK1A-kd) (Rattus norvegicus, UniProt Q63470)
- protocolSummary: biochemical
- conditionContext: read-out: % of control remaining
quantityKind: remaining activity at 10 µM
Don't forget the unit after the number, please.

Below, 3 compounds whose answers are already recorded.
compound	studySystem	remaining activity at 10 µM
O=C(Nc1ccc(Cc2ccncc2)cc1)Nc1cccc2ccccc12 [compound 22, #22]	DYRK1A (RnDYRK1A-kd) (Rattus norvegicus, UniProt Q63470)	83%
O=C(NC[C@H]1CC(=O)N(c2ccc3c(c2)OCO3)C1)Nc1cccc(C(F)(F)F)c1 [compound 75, #75]	DYRK1A (RnDYRK1A-kd) (Rattus norvegicus, UniProt Q63470)	89%
Cc1ccc(NC(=O)Nc2ccc(Cc3ccncc3)cc2)cc1C [compound 82, #82]	DYRK1A (RnDYRK1A-kd) (Rattus norvegicus, UniProt Q63470)	134%

Now consider a different compound.
Please look at this compound and report its remaining activity at 10 µM: O=C(CSc1ccc(-c2cccnc2)nn1)Nc1cccc(C(F)(F)F)c1 [compound 9, #9] 80%
